Listing of recorded pKd by entry.
Molecular target: T1, PUF4 RNA-binding domain (Saccharomyces cerevisiae, UniProt P25339 537-888)
T1 sequence: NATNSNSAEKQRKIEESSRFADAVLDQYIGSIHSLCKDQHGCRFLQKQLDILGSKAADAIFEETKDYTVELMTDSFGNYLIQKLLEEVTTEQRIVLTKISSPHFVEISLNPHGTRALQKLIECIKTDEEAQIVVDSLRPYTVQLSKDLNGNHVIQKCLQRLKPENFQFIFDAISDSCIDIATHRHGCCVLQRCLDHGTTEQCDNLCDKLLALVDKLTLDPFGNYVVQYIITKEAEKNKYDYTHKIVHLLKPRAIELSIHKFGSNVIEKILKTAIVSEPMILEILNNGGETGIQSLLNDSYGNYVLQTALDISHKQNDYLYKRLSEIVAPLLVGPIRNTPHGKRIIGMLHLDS
Assay: Mg; RNA-MaP; 20 mM Na-HEPES pH 7.4, 30 mM KOAc, 0.75 mM MgCl2, 0.1% Tween-20, 5% glycerol, 0.1 mg/mL BSA, 2 mM DTT; 25 C; 0.0125-409.6 nM protein
Conditions: tags: N-His6-TEV cleaved; C-SNAP kept, Cy3B-labelled; label: tethered on chip by stalled RNA polymerase
# reply with the number alone; pKd is -log10 of concentration in mol/L

Known results for binders:
{"BINDER": "UCUCUUUGUUGUAUAUAUAUCUCUU (ssRNA) [Id_iii_S1_P3E.5_K3.1_C3.3_[C-2G]_H3.1_A3.1_F3.1_T3.2]", "REPORTED PROPERTY": "pKd", "ENDPOINT VALUE": 8.28}
{"BINDER": "UCUCUUUGUCUAUUGUCUCUU (ssRNA) [Ib_S1_P4E.1_K4.1_C4.1_H4.1_[A4C]_A4.1_F4.1_[A9G]_T4.1]", "REPORTED PROPERTY": "pKd", "ENDPOINT VALUE": 6.24}

Okay, now this binder:
What pKd value was documented for this binder, Id_iii_S4_P4E.8_K4.4_C4.3_[C-2A]_H4.1_A4.2_F4.1_T4.2 (ssRNA) RNA: UUUGACAACUGAUCGUUCUUUCUUAUUGUAUUUUAGUUUCUUUCUCGAUCAGUUGUCUUU ?
8.94
